TESTED TARGET: Abl kinase (Homo sapiens)
Construct: purchased Invitrogen
MEASUREMENT PROTOCOL: Abl Kinase Assay (KinaseGlo luminescent detection of residual ATP)
Format: biochemical
SETTINGS: Abl kinase 20 ng/well, Abltide 100 μM, ATP 500 nM, 60 minutes at 37° C.; read-out: Abl IC50
pIC50: −log10 of the molar value.
READOUT KIND: pIC50

Worked cases, pIC50 given:
[[record]]
compound = "Cc1nc(Nc2ncc(/C=C/c3ccc4[nH]ncc4c3)s2)cc(N2CCNCC2)n1 [Compound XXIV]"
tested_target = "Abl kinase (Homo sapiens)"
experimental_value = 7.80

[[record]]
compound = "O=C(Nc1ccc(/C=C/c2cnc(Nc3cccc(N4CCNCC4)c3)s2)cc1)c1cccc(C(F)(F)F)c1 [Compound XXIII]"
tested_target = "Abl kinase (Homo sapiens)"
experimental_value = 6.51

[[record]]
compound = "Cc1nc(Nc2ncc(/C=C/c3ccc(O)cc3)s2)cc(N2CCN(CCO)CC2)n1 [Compound III]"
tested_target = "Abl kinase (Homo sapiens)"
experimental_value = 7.59

[[record]]
compound = "Cc1nc(Nc2ncc(/C=C/c3cccc(O)c3)s2)cc(N2CCC(O)CC2)n1 [Compound VIII]"
tested_target = "Abl kinase (Homo sapiens)"
experimental_value = 7.62

[[record]]
compound = "Oc1ccc(/C=C/c2cnc(Nc3cccc(N4CCNCC4)c3)s2)cc1 [Compound XIV]"
tested_target = "Abl kinase (Homo sapiens)"
experimental_value = 7.62

[[record]]
compound = "Oc1cccc(/C=C/c2cnc(Nc3cc(N4CCNCC4)ncn3)s2)c1 [Compound XVII]"
tested_target = "Abl kinase (Homo sapiens)"
experimental_value = 8.36

[[record]]
compound = "Cc1nc(Nc2ncc(/C=C\\c3cccc(O)c3)s2)cc(N2CCC(O)CC2)n1 [Compound VII]"
tested_target = "Abl kinase (Homo sapiens)"
experimental_value = 7.54

[[record]]
compound = "Cc1nc(Nc2ncc(/C=C/c3ccc(Cl)c4[nH]ccc34)s2)cc(N2CCNCC2)n1"
tested_target = "Abl kinase (Homo sapiens)"
experimental_value = 7.15


I = Cc1nc(Nc2ncc(/C=C/c3ccc4[nH]ccc4c3)s2)cc(N2CCNCC2)n1 [Compound XV]
II = O=S(=O)(c1ccc(Nc2ncc(/C=C/c3cccc(O)c3)s2)cc1)N1CCNCC1 [Compound XI]
III = O=S(=O)(NCCN1CCCC1)c1ccc(Nc2ncc(C=Cc3cc(O)ccc3Cl)s2)cc1 [Compound IV]
IV = Cc1nc(Nc2ncc(/C=C/c3cccc(O)c3)s2)cc(N2CCCNCC2)n1 [Compound XVIII]
V = Cc1nc(Nc2ncc(/C=C/c3cccc4[nH]ncc34)s2)cc(N2CCNCC2)n1 [Compound XVI]
Order the records so the highest pIC50 appears first and the lowest last. Your answer should be the labels, listed in the requested order. IV, V, I, II, III
(IV: 8.57, V: 7.70, I: 7.27, II: 6.86, III: 6.05)

====

TESTED TARGET: Abl kinase (Homo sapiens, UniProt P00519)
Construct: purchased Invitrogen
MEASUREMENT PROTOCOL: Abl Kinase Assay (KinaseGlo luminescent detection of residual ATP)
Format: biochemical
pIC50: −log10 of the molar value. Structures can show the parent of a compound that is named as a salt.
READOUT KIND: pIC50

Solved cases below.
[[record]]
molecule = "Cc1nc(Nc2ncc(/C=C/c3ccc4nc(N)sc4c3)s2)cc(N2CCNCC2)n1"
experimental_value = 7.80

[[record]]
molecule = "O=S(=O)(c1cccc(Nc2ncc(/C=C/c3cccc(O)c3)s2)c1)N1CCNCC1"
experimental_value = 6.89

[[record]]
molecule = "O=S(=O)(c1ccc(Nc2ncc(/C=C/c3ccc(O)cc3)s2)cc1)C1CCNCC1"
experimental_value = 6.67


a = COc1cccc(/C=C/c2cnc(Nc3cc(N4CCNCC4)nc(C)n3)s2)c1 [Compound XXI, hydrochloride]
b = Oc1cccc(/C=C/c2cnc(Nc3cccc(N4CCNCC4)c3)s2)c1
Returns: the argument ( a or b ) having the larger pIC50. Identify your pick by its label. b

a = OCCN1CCN(c2cccc(Nc3ncc(/C=C/c4ccc5[nH]ccc5c4)s3)c2)CC1
b = CN(CCN1CCCC1)S(=O)(=O)c1cccc(Nc2ncc(/C=C/c3ccc(O)cc3)s2)c1 [Compound II, Hydrochloride]
Return label of the item with the larger pIC50. Candidates: a , b . Provide the label of your selected option as the answer. a

a = Oc1ccc(/C=C/c2cnc(Nc3cccc(OCCN4CCCC4)c3)s2)cc1
b = Oc1cccc(/C=C/c2cnc(Nc3ccc(N4CCNCC4)cc3)s2)c1
c = Cc1nc(Nc2ncc(/C=C/c3cccc(O)c3)s2)cc(N2CCNCC2)n1 [Compound XX, hydrochloride]
Endpoint returns the given molecules ordered by ascending pIC50. Put the labels in the requested order and write them down. a, b, c
(a: 6.79, b: 7.82, c: 8.82)

====

TESTED TARGET: Abl (T315I) (Homo sapiens, UniProt P00519, T315I)
Construct: purchased Upstate
MEASUREMENT PROTOCOL: Abl (T315I) Kinase Assay (KinaseGlo luminescent detection of residual ATP)
Type: biochemical
Structures can show the parent of a compound that is named as a salt.
READOUT KIND: IC50 (nM)

Some solved entries appear below for comparison.
[[record]]
compound = "CN(CCN1CCCC1)S(=O)(=O)c1cccc(Nc2ncc(/C=C/c3ccc(O)cc3)s2)c1 [Compound II, Hydrochloride]"
readout_kind = "IC50"
experimental_value = 827

[[record]]
compound = "O=S(=O)(c1cccc(Nc2ncc(/C=C/c3cccc(O)c3)s2)c1)N1CCNCC1"
readout_kind = "IC50"
experimental_value = 2650

[[record]]
compound = "COc1cccc(/C=C/c2cnc(Nc3cc(N4CCNCC4)nc(C)n3)s2)c1 [Compound XXI, hydrochloride]"
readout_kind = "IC50"
experimental_value = 605

[[record]]
compound = "Cc1nc(Nc2ncc(/C=C/c3cccc(O)c3)s2)cc(N2CCNCC2)n1 [Compound XX, hydrochloride]"
readout_kind = "IC50"
experimental_value = 18

[[record]]
compound = "OCCN1CCN(c2cccc(Nc3ncc(/C=C/c4ccc5[nH]ccc5c4)s3)c2)CC1"
readout_kind = "IC50"
experimental_value = 1090


A = Cc1nc(Nc2ncc(/C=C/c3ccc4nc(N)sc4c3)s2)cc(N2CCNCC2)n1
B = O=S(=O)(c1ccc(Nc2ncc(/C=C/c3ccc(O)cc3)s2)cc1)C1CCNCC1
Please let me know which one, A or B , has a lower measured IC50 value. Identify your selection by its label. A

====

TESTED TARGET: Abl (T315I) (Homo sapiens, UniProt P00519, T315I)
Construct: purchased Upstate
MEASUREMENT PROTOCOL: Abl (T315I) Kinase Assay (KinaseGlo luminescent detection of residual ATP)
Assay type: biochemical
SETTINGS: Abl (T315I) 17 ng/well, Abltide 100 μM, ATP 5 nM, 60 minutes at 37° C.; read-out: Abl (T315I) IC50
pIC50: −log10 of the molar value.
READOUT KIND: pIC50

Recorded pIC50, per entry:
[[record]]
smiles_record = "Cc1nc(Nc2ncc(/C=C/c3cccc4[nH]ncc34)s2)cc(N2CCNCC2)n1"
readout_kind = "pIC50"
experimental_value = 6.48

[[record]]
smiles_record = "O=S(=O)(c1ccc(Nc2ncc(/C=C/c3cccc(O)c3)s2)cc1)N1CCNCC1"
readout_kind = "pIC50"
experimental_value = 6.36

[[record]]
smiles_record = "Cc1nc(Nc2ncc(/C=C/c3ccc4[nH]ncc4c3)s2)cc(N2CCNCC2)n1"
readout_kind = "pIC50"
experimental_value = 6.46

[[record]]
smiles_record = "Cc1nc(Nc2ncc(/C=C/c3ccc(O)cc3)s2)cc(N2CCN(CCO)CC2)n1"
readout_kind = "pIC50"
experimental_value = 7.18

[[record]]
smiles_record = "Cc1nc(Nc2ncc(/C=C/c3ccc(Cl)c4[nH]ccc34)s2)cc(N2CCNCC2)n1"
readout_kind = "pIC50"
experimental_value = 7.30

[[record]]
smiles_record = "Cc1nc(Nc2ncc(/C=C/c3ccc4[nH]ccc4c3)s2)cc(N2CCNCC2)n1"
readout_kind = "pIC50"
experimental_value = 6.46

[[record]]
smiles_record = "Oc1ccc(/C=C/c2cnc(Nc3cccc(N4CCNCC4)c3)s2)cc1"
readout_kind = "pIC50"
experimental_value = 7.29

[[record]]
smiles_record = "Cc1nc(Nc2ncc(/C=C/c3cccc(O)c3)s2)cc(N2CCCNCC2)n1"
readout_kind = "pIC50"
experimental_value = 7.51

[[record]]
smiles_record = "Cc1nc(Nc2ncc(/C=C/c3cccc(O)c3)s2)cc(N2CCC(O)CC2)n1"
readout_kind = "pIC50"
experimental_value = 6.68


A = Oc1cccc(/C=C/c2cnc(Nc3cc(N4CCNCC4)ncn3)s2)c1
B = Cc1nc(Nc2ncc(/C=C\c3cccc(O)c3)s2)cc(N2CCC(O)CC2)n1
C = O=C(Nc1ccc(/C=C/c2cnc(Nc3cccc(N4CCNCC4)c3)s2)cc1)c1cccc(C(F)(F)F)c1
Hi! Can you put these in order of pIC50, lowest number first? Submit the labels in the order that the ranking request calls for. C, B, A
